# Experimental System: DHP site
# Procedure Summary: Rat cortex binding, DHP site ([3H]nitrendipine)
# Experimental Conditions: rat cortical homogenates; [3H]nitrendipine 0.1 nM
pKi: −log10 of the molar value.

Compound | Experimental System | pKi
O=C(Nc1ccc([N+](=O)[O-])cc1Cl)c1cc(Cl)ccc1O [Niclosamide] | DHP site | < 4.52

* * *

# Experimental System: Phenylalkylamine site
# Procedure Summary: Rat cortex binding, phenylalkylamine site ([3H]D888)
# Experimental Conditions: rat cortical homogenates; [3H]D888 3 nM

Compound | Experimental System | Ki
O=C(Nc1ccc([N+](=O)[O-])cc1Cl)c1cc(Cl)ccc1O [Niclosamide] | Phenylalkylamine site | > 30 µM
